Ref: PubChem BioAssay AID1745844

test system: rodent lifetime carcinogenesis bioassay, tumor incidence TD50; test: carcinogenic potency in animals, long-term in vivo studies, CPDB compilation (AID 1745844); conditions: mouse; strain Swiss; females; inhaled; site: lung; lesion: carcinoma; dosed 52 weeks; study length 104 weeks
assay.endpoint: TD50

Can you look up the measured TD50 of C=CCl for me?
55.5 mg/kg/day

----------
test system: rodent lifetime carcinogenesis bioassay, tumor incidence TD50; test: carcinogenic potency in animals, long-term in vivo studies, CPDB compilation (AID 1745844); details: rat; strain Sprague-Dawley; females; inhaled; site: liver; lesion: angiosarcoma; dosed 52 weeks; study length 139 weeks
assay.endpoint: TD50

Need TD50 of C=CCl , thanks.
113 mg/kg/day

----------
test system: rodent lifetime carcinogenesis bioassay, tumor incidence TD50; assay: carcinogenic potency in animals, long-term in vivo studies, CPDB compilation (AID 1745844); details: rat; strain MRC Porton (Wistar derived); males; in feed; site: liver; lesion: one or several types; types not named; dosed 120 weeks; study length 120 weeks
assay.endpoint: TD50

Returns the measured TD50 for the input molecule. Input: CN(C)N=O
1.18 mg/kg/day

----------
system: rodent lifetime carcinogenesis bioassay, tumor incidence TD50; assay: carcinogenic potency in animals, long-term in vivo studies, CPDB compilation (AID 1745844); conditions: hamster; strain Syrian Golden; females; in feed; site: liver; lesion: several types; types named in the paper; dosed 101 weeks; study length 105 weeks
assay.endpoint: TD50 (mg/kg/day)
Your answer should be a plain number; it is taken to be in mg/kg/day.

Data request, read-out TD50, for CN(Cc1cnc2nc(N)nc(N)c2n1)c1ccc(C(=O)N[C@@H](CCC(=O)O)C(=O)O)cc1
167

----------
test system: rodent lifetime carcinogenesis bioassay, tumor incidence TD50; assay: carcinogenic potency in animals, long-term in vivo studies, CPDB compilation (AID 1745844); details: rat; strain Sprague-Dawley; females; in feed; site: urinary bladder; lesion: several types; types named in the paper; dosed 75 weeks; study length 75 weeks
assay.endpoint: TD50

# get_value(readout='TD50', item= COc1cc2c(cc1N)oc1ccccc12 )
43.9 mg/kg/day

----------
system: rodent lifetime carcinogenesis bioassay, tumor incidence TD50; experiment: carcinogenic potency in animals, long-term in vivo studies, CPDB compilation (AID 1745844); settings: mouse; strain B6C3F1; females; in feed; site: liver; lesion: hepatocellular adenoma + hepatocellular carcinoma; dosed 103 weeks; study length 106 weeks
assay.endpoint: TD50

Form field: reported TD50 of Nc1cc(S(=O)(=O)[O-])cc2cc(S(=O)(=O)[O-])c(N=Nc3ccc(-c4ccc(N=Nc5c(S(=O)(=O)[O-])cc6cc(S(=O)(=O)[O-])cc(N)c6c5O)c(O)c4)cc3O)c(O)c12.[Cu].[Cu].[Na+].[Na+].[Na+].[Na+]
711 mg/kg/day

----------
Quick reference for TD50 among some molecules
tested on: rodent lifetime carcinogenesis bioassay, tumor incidence TD50; experiment: carcinogenic potency in animals, long-term in vivo studies, CPDB compilation (AID 1745844); conditions: rat; strain Fischer 344; males; by gavage; site: testis; lesion: interstitial-cell adenoma, bilateral + interstitial-cell adenoma; dosed 103 weeks; study length 104 weeks
The source made the active and inactive calls. How the calls were made is not given here.

# smi, TD50
rows = [
    ("[N-]=[N+]=[N-]", "3.79 mg/kg/day (inactive)"),
    ("CCCN(CCC)S(=O)(=O)c1ccc(C(=O)O)cc1", "212 mg/kg/day (inactive)"),
]

# context switch: different molecule, same TD50
Param readout= TD50; system= rodent lifetime carcinogenesis bioassay, tumor incidence TD50; entry= [Cl][Hg][Cl] ; returns value.
0.825 mg/kg/day
